Source listed as patent US20240025885A1.

test: in vivo; conditions: crab-eating monkey, oral, 2 mg/kg, plasma, read-out: Oral AUClast
AUC(0-t) reference
RESULT_TYPE: AUC(0-t)

> print(dat)
                                   compound  result.type  value.measured
1  [2H]C([2H])([2H])n1cc2cc(Nc3nc(=O)n(Cc4cscn4)c(=O)n3Cc3cc(F)c(F)c(F)c3)c(Cl)cc2n1 [Compound 40]     AUC(0-t)   62400 ng·h/mL
2  O=c1nc(Nc2cc3cn(CCO)nc3cc2Cl)n(Cc2cc(F)c(F)cc2F)c(=O)n1Cc1ccon1 [Compound 70]     AUC(0-t)    9880 ng·h/mL
3  [2H]C([2H])([2H])n1cc2cc(Nc3nc(=O)n(Cc4cocn4)c(=O)n3Cc3cc(F)c(F)cc3F)c(Cl)cc2n1 [Compound 18]     AUC(0-t)   10400 ng·h/mL
4  [2H]C([2H])([2H])n1cc2cc(Nc3nc(=O)n(Cc4ccon4)c(=O)n3Cc3cc(F)c(F)cc3F)c(Cl)cc2n1 [Compound 17]     AUC(0-t)   64300 ng·h/mL
5  [2H]C([2H])([2H])n1cc2cc(Nc3nc(=O)n(Cc4ccon4)c(=O)n3Cc3cc(F)c(F)c(F)c3)c(Cl)cc2n1 [Compound 41]     AUC(0-t)   63300 ng·h/mL
6  [2H]C([2H])([2H])n1cc2cc(Nc3nc(=O)n(Cc4cscn4)c(=O)n3Cc3cc(F)c(F)cc3F)c(Cl)cc2n1 [Compound 16]     AUC(0-t)   10100 ng·h/mL
